Tested on: SKBR3 (PI3Kα-Wild Type) cell line
test.method.notes: HTRF phospho-AKT(S473) cell assay in SKBR3 cells
Type: cell-based, human
measurement.conditions: Homo sapiens, SK-BR-3; SKBR3 (PI3Kα-Wild Type) cells, HTRF phospho-AKT(S473), 2 hours compound incubation, PDGF-BB stimulated
pIC50: −log10 of the molar value.
measurement.name: pIC50

Return value of pIC50 for input Cc1cc([C@@H](C)Nc2ccc(Cl)nc2C(=O)NS(C)(=O)=O)c2nc(N3[C@@H]4CC[C@H]3C[C@@H](c3cnn(C)c3)C4)n(C)c(=O)c2c1 (racemic) [Compound 381] , no commentary.
5.30 to 6.00

Return value of pIC50 for input `Cc1cc([C@@H](C)Nc2ccc(Cl)nc2C(=O)NS(C)(=O)=O)c2nc(N3CCC[C@@H](Oc4cncnc4)C3)n(C)c(=O)c2c1` , no commentary.
≤ 5.30

Return value of pIC50 for input Cc1cc([C@@H](C)Nc2ccc(Cl)nc2C(=O)NS(C)(=O)=O)c2nc(N3CCC[C@H](c4ccc(C)nc4)C3)n(C)c(=O)c2c1 (relative stereo) , no commentary.
5.30 to 6.00

----------
Tested on: SKBR3 (PI3Kα-Wild Type) cell line
test.method.notes: HTRF phospho-AKT(S473) cell assay in SKBR3 cells
Type: cell-based, human
measurement.conditions: Homo sapiens, SK-BR-3; SKBR3 (PI3Kα-Wild Type) cells, HTRF phospho-AKT(S473), 2 hours compound incubation, PDGF-BB stimulated
pIC50: −log10 of the molar value.
Record form. Attribute: pIC50. Fill in for each entry.

Return value of pIC50 for input Cc1cc([C@@H](C)Nc2ccc(Cl)nc2C(=O)NS(=O)(=O)c2ccncc2)c2nc(N3Cc4ccc(F)cc4C3)n(C)c(=O)c2c1 [Compound 170] , no commentary.
≤ 5.30

Return value of pIC50 for input Cc1cc([C@@H](C)Nc2ccc(Cl)nc2C(=O)NS(C)(=O)=O)c2nc(N3CCC(c4cn[nH]c4)CC3)n(C)c(=O)c2c1 [Compound 167] , no commentary.
5.30 to 6.00

Return value of pIC50 for input Cc1cc([C@@H](C)Nc2ccc(Cl)nc2C(=O)NS(C)(=O)=O)c2nc(N3CCC(c4ccnn4C)CC3)n(C)c(=O)c2c1 [Compound 389] , no commentary.
5.30 to 6.00

----------
System: SKBR3 (PI3Kα-Wild Type) cell line
test.method.notes: HTRF phospho-AKT(S473) cell assay in SKBR3 cells
Format: cell-based, human
measurement.conditions: Homo sapiens, SK-BR-3; HTRF phospho-AKT(S473), SKBR3 (PI3Kα-Wild Type) cells, 2 hours compound incubation, PDGF-BB stimulated
Record form. Attribute: IC50. Fill in for each entry.

Return value of IC50 for input Cc1cc([C@@H](C)Nc2ccc(Cl)nc2C(=O)NS(C)(=O)=O)c2nc(N3C[C@H]4C[C@@H]3CN4c3cnc(C)c(F)c3)n(C)c(=O)c2c1 [Compound 664] , no commentary.
≥ 5 µM

Return value of IC50 for input Cc1cc([C@@H](C)Nc2ccc(Cl)nc2C(=O)NS(C)(=O)=O)c2nc([C@H]3[C@@H]4CN(c5cnc(C)nc5)C[C@@H]43)n(C)c(=O)c2c1 [Compound 820] , no commentary.
1 to 5 µM

Return value of IC50 for input COc1cc([C@H]2[C@@H]3CN(c4nc5c([C@@H](C)Nc6ccc(Cl)nc6C(=O)NS(C)(=O)=O)cc(C)cc5c(=O)n4C)C[C@@H]32)c(F)cn1 [Compound 479] , no commentary.
≥ 5 µM

Return value of IC50 for input Cc1cc([C@@H](C)Nc2ccc(Cl)nc2C(=O)NS(C)(=O)=O)c2nc(N3CC[C@@H](Oc4ccnnc4)C3)n(C)c(=O)c2c1 [Compound 710] , no commentary.
≥ 5 µM

Return value of IC50 for input COc1nc(C2CCN(c3nc4c([C@@H](C)Nc5ccc(Cl)nc5C(=O)NS(C)(=O)=O)cc(C)cc4c(=O)n3C)CC2)ncc1C [Compound 562] , no commentary.
≥ 5 µM

Return value of IC50 for input Cc1cc([C@@H](C)Nc2ccc(Cl)nc2C(=O)NS(C)(=O)=O)c2nc(N3CC4C[C@H]3CN4c3ccc(N(C)C)cc3)n(C)c(=O)c2c1 (stereo in doubt) [Compound 743] , no commentary.
≥ 5 µM

Return value of IC50 for input COc1cc([C@H]2[C@@H]3CN(c4nc5c([C@@H](C)Nc6ccc(Cl)nc6C(=O)NS(C)(=O)=O)cc(C)cc5c(=O)n4C)C[C@@H]32)n[nH]1 [Compound 722] , no commentary.
1 to 5 µM

Return value of IC50 for input Cc1cc([C@@H](C)Nc2ccc(Cl)nc2C(=O)NS(C)(=O)=O)c2nc(N3CCC(c4csc(C)n4)CC3)n(C)c(=O)c2c1 [Compound 503] , no commentary.
1 to 5 µM

Return value of IC50 for input Cc1cc([C@@H](C)Nc2ccc(Cl)nc2C(=O)NS(C)(=O)=O)c2nc(N3Cc4cnn(CC(F)(F)F)c4C3)n(C3CC3)c(=O)c2c1 [Compound 736] , no commentary.
≥ 5 µM

Return value of IC50 for input Cc1cc([C@@H](C)Nc2ccc(Cl)nc2C(=O)NS(C)(=O)=O)c2nc(N3C[C@@H]4[C@H](C3)[C@H]4c3cc(C)on3)n(C)c(=O)c2c1 [Compound 665] , no commentary.
1 to 5 µM

Return value of IC50 for input Cc1cc([C@@H](C)Nc2ccc(Cl)nc2C(=O)NS(C)(=O)=O)c2nc(-c3ccc4nn(C5COC5)cc4c3)n(C)c(=O)c2c1 [Compound 792] , no commentary.
1 to 5 µM

Return value of IC50 for input Cc1cc([C@@H](C)Nc2ccc(Cl)nc2C(=O)NS(C)(=O)=O)c2nc(N3CCN(c4ccc(F)cn4)CC3)n(C)c(=O)c2c1 [Compound 574] , no commentary.
1 to 5 µM

Return value of IC50 for input Cc1cc([C@@H](C)Nc2ccc(Cl)nc2C(=O)NS(C)(=O)=O)c2nc(N3Cc4cn(CC(F)(F)F)nc4C3)n(C3CC3)c(=O)c2c1 [Compound 735] , no commentary.
1 to 5 µM

Return value of IC50 for input Cc1cc([C@@H](C)Nc2ccc(Cl)nc2C(=O)NS(C)(=O)=O)c2nc(N3C[C@@H]4[C@H](C3)[C@H]4c3cc4n(n3)CCO4)n(C)c(=O)c2c1 [Compound 520] , no commentary.
1 to 5 µM

Return value of IC50 for input Cc1cc([C@@H](C)Nc2ccc(Cl)nc2C(=O)NS(C)(=O)=O)c2nc(N3CC[C@@H](c4ccc(C)nc4)C3)n(C)c(=O)c2c1 (relative stereo) [Compound 659] , no commentary.
1 to 5 µM

Return value of IC50 for input Cc1cc([C@@H](C)Nc2ccc(Cl)nc2C(=O)NS(C)(=O)=O)c2nc(N3CCN4C[C@H](n5cc(C)cn5)C[C@H]4C3)n(C)c(=O)c2c1 [Compound 680] , no commentary.
≥ 5 µM

Return value of IC50 for input CC(=O)N1CCN(c2ccc(-c3nc4c([C@@H](C)Nc5ccc(Cl)nc5C(=O)NS(C)(=O)=O)cc(C)cc4c(=O)n3C)c(F)c2)CC1 [Compound 785] , no commentary.
1 to 5 µM

Return value of IC50 for input Cc1cc([C@@H](C)Nc2ccc(Cl)nc2C(=O)NS(C)(=O)=O)c2nc(N3CCC(c4ccnn4C4CC4)CC3)n(C)c(=O)c2c1 [Compound 501] , no commentary.
1 to 5 µM

Return value of IC50 for input Cc1cc([C@@H](C)Nc2ccc(Cl)nc2C(=O)NS(C)(=O)=O)c2nc(N3C[C@@H]4[C@H](C3)[C@H]4c3ccc(C)nc3)n(C)c(=O)c2c1 [Compound 449] , no commentary.
≥ 5 µM

Return value of IC50 for input COc1nccc(N2C[C@H]3C[C@@H]2CN3c2nc3c([C@@H](C)Nc4ccc(Cl)nc4C(=O)NS(C)(=O)=O)cc(C)cc3c(=O)n2C)n1 [Compound 582] , no commentary.
≥ 5 µM

Return value of IC50 for input Cc1cc([C@@H](C)Nc2ccc(Cl)nc2C(=O)NS(C)(=O)=O)c2nc(N3CCC(c4cc(C)on4)CC3)n(C)c(=O)c2c1 [Compound 571] , no commentary.
1 to 5 µM

Return value of IC50 for input Cc1cc([C@@H](C)Nc2ccc(Cl)nc2C(=O)NS(C)(=O)=O)c2nc(N3CCC(c4nc(C)nn4C(F)F)CC3)n(C)c(=O)c2c1 [Compound 724] , no commentary.
1 to 5 µM

Return value of IC50 for input Cc1cc([C@@H](C)Nc2ccc(Cl)nc2C(=O)NS(C)(=O)=O)c2nc(N3CC[C@H](Oc4cnc(C)cn4)C3)n(C)c(=O)c2c1 [Compound 631] , no commentary.
1 to 5 µM
